- tested_target: MTHFD2 recombinant human enzyme (Homo sapiens)
- Sequence (P13995 36-350): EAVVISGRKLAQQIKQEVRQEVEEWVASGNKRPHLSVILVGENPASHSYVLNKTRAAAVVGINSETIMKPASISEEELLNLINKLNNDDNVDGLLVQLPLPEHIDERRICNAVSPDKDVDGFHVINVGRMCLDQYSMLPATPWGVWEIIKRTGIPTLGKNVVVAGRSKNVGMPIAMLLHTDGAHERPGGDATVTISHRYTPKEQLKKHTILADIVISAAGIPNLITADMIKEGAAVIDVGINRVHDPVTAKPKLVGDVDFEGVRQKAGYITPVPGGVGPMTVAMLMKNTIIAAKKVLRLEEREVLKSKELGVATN
- protocol_summary: MTHFD2 inhibition assay (NAD(P)H-Glo luminescence)
- applied_conditions: selectivity of MTHFD2 inhibition over MTHFD1, band
assay_endpoint: MTHFD1/MTHFD2 IC50 ratio

Study these solved cases before continuing.
{"smiles_data": "COC[C@H]1CN(c2cc(Cl)c3c4c(c(=O)oc3c2C)CN(C(=O)c2cc(OC)c(C(=O)NS(=O)(=O)N(C3CC3)C3CC3)cc2F)CC4)CCN1C", "endpoint_result": "H (>9.0 to 30)"}
{"smiles_data": "CCOc1cc(C(=O)N2CCc3c(c(=O)oc4c(C)c(N5CCN(C)[C@@H](COC)C5)cc(C)c34)C2)c(F)cc1C(=O)NS(=O)(=O)N1CC2(CCC2)C1", "endpoint_result": "H (>9.0 to 30)"}
{"smiles_data": "COC[C@H]1CN(c2cc(C)c3c4c(c(=O)oc3c2C)CN(C(=O)c2ccc(C(=O)NS(=O)(=O)C3(C)CC3)c(N3CCC3)c2)CC4)CCN1C", "endpoint_result": "G (^ 3 to 9.0)"}
{"smiles_data": "COC[C@H]1CN(c2ccc3c4c(c(=O)oc3c2C)CN(C(=O)c2ccc(C(=O)NS(=O)(=O)N3CCCC3)c(N(C)C)c2F)CC4)CCN1C", "endpoint_result": "G (^ 3 to 9.0)"}

Now look at this entry.
Item "COC[C@H]1CN(c2cc(C)c3c4c(c(=O)oc3c2C)CN(C(=O)c2ccc(C(=O)NS(=O)(=O)C3(C)CC3)c(N3CCC(C)(C)C3)c2)CC4)CCN1C" has what recorded MTHFD1/MTHFD2 IC50 ratio?
G (^ 3 to 9.0)
